Test system: 186277-243-T-J2-PDC complex spheroid viability;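 further: spheroids exposed to drugs for 7 days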
test protocol: Anticancer human tumor 186277-243-T-J2-PDC patient-derived colon adenocarcinoma cell line growth inhibition [GQUAD]
assay conditions: curve of first compound; second compound 0.1 µM
parameter measured: IC50

Examples with answers:
compound	parameter measured	result
O=c1[nH]cc(F)c(=O)[nH]1 + Cc1[nH]c2ccc(F)cc2c1-c1nc2c3cccnc3c3ncccc3c2[nH]1	IC50	> 10000 nM
C=CC(=O)N1CCN(c2nc(=O)n(-c3c(C)ccnc3C(C)C)c3nc(-c4c(O)cccc4F)c(F)cc23)C(C)C1 (configuration not stated) + Cc1[nH]c2ccc(F)cc2c1-c1nc2c3cccnc3c3ncccc3c2[nH]1	IC50	> 10000 nM

// query IC50 value for entry COc1ncnc(C2CC2)c1-c1ncc2cnn(Cc3ccc(-c4nc(C(F)(F)F)cn4C(C)C)cc3)c2n1 + Cc1cnc(CNC(=O)c2c(=O)c3ccc(N4CCCN(C)CC4)nc3n3c2sc2ccccc23)cn1 > 10000 nM

And the next one, COc1ncnc(C2CC2)c1-c1ncc2cnn(Cc3ccc(-c4nc(C(F)(F)F)cn4C(C)C)cc3)c2n1 + CN(C)c1ccc(Nc2c3ccc(NC(=O)CCN4CCCC4)cc3nc3cc(NC(=O)CCN4CCCC4)ccc23)cc1 ? > 10000 nM

And the next one, Cn1ncnc1[C@H]1c2n[nH]c(=O)c3cc(F)cc(c23)N[C@@H]1c1ccc(F)cc1 + Cc1[nH]c2ccc(F)cc2c1-c1nc2c3cccnc3c3ncccc3c2[nH]1 ? > 316 nM
